System: ZEAMA Sileno
Assay: Tank-mix; post-emergence, crop damage with and without safener
Format: in vivo, maize
Conditions: HER dose 8 g a.i./ha, no safener; Final assessment
In this section we review reported HER effect values for a set of molecules.
Value expressed in %; do not type the unit.

Solved cases (6 shown):
# molecule, experimental readout, reported value
data = [
    ("COCCOC(=O)C1C=CC(NC(=O)C2(C(F)(F)F)CC(c3cc(F)cc(C#N)c3)=NO2)C1 (stereo not shown) [Example 1.2]", "HER effect", 90),
    ("CCOC(=O)C1C=CC(NC(=O)C2(C(F)(F)F)CC(c3ccccc3)=NO2)C1 (stereo not shown) [Example 1.9]", "HER effect", 78),
    ("CC1(C(=O)NC2C=CC(C(=O)O)C2)CC(c2cc(F)cc(F)c2)=NO1 (stereo not shown) [Example 1.36]", "HER effect", 80),
    ("C=CC1(C(=O)NC2C=CC(C(=O)OC)C2)CC(c2cc(F)cc(F)c2)=NO1 (stereo not shown) [Example 1.26]", "HER effect", 57),
    ("C=CC1(C(=O)NC2COC(C(=O)OC)C2)CC(c2cc(F)cc(F)c2)=NO1 (stereo not shown) [Example 1.69]", "HER effect", 92),
    ("CN(C)C(=O)SCCOC(=O)C1C=CC(NC(=O)C2(C)CC(c3cc(F)cc(F)c3)=NO2)C1 (stereo not shown) [Example 1.29]", "HER effect", 60),
]

In the following, a different molecule is considered.
For the molecule COC(=O)C1C=CC(NC(=O)C2(C)CC(c3cc(Cl)cc(C#N)c3)=NO2)C1 (mixture of isomers) [Example 1.23] , what HER effect is on record?
50

###

System: ZEAMA Sileno
Assay: Seed treatment with safener; post-emergence herbicide application
Type: in vivo, maize
Details: HER dose 8 g a.i./ha, Cyprosulfamide 0.5 g a.i./kg seed, Final assessment
In this section we review reported Reduction [%] values for a set of compounds.
Value expressed in %; do not type the unit.

Solved cases (2 shown):
# compound, Reduction [%] [%]
rows = [
    ("COC(=O)C1(C)CC(NC(=O)C2(C(C)(F)F)CC(c3cc(F)cc(F)c3)=NO2)CO1 (mixture of isomers)", 100),
    ("C=CC1(C(=O)NC2C=CC(C(=O)OC)C2)CC(c2cc(F)cc(F)c2)=NO1 (stereo not drawn)", 74),
]

In the following, a different compound is considered.
For the compound CCOC(=O)C1C=CC(NC(=O)C2(C(F)(F)F)CC(c3ccccc3)=NO2)C1 (stereo not drawn) , what Reduction [%] is on record?
100
